Just for reference, PubChem BioAssay (NCATS) is where these values come from.

system: Es-2; experiment: Primary qHTS to identify gynecologic anti-cancer compounds using libraries of approved drugs and bioactive compounds (AID 1345084); conditions: Gynecologic cancer cell panel viability, ATPlite luminescence, 48 h; series mostly up to 57.5 µM; further: nearly all actives have a fitted effect of over 55% in size; further: potency means the concentration at half of the fitted maximal effect
Results filed as inconclusive are left out. Active and inactive are the calls of the source. The call rests on the fitted dose curve; in most records, active means well fitted cell-killing curve with a large enough effect; inconclusive means small, poorly fitted or top-dose-only effect, or effect the other way; inactive means flat fitted curve, though single readings scatter.
measured metric: Potency

[[record]]
molecule = "CC(C)NCC(O)COc1ccc(COCCOC(C)C)cc1 (stereo not drawn)"
result = "inactive"

[[record]]
molecule = "Cc1cc(SCc2sc(-c3ccc(C(F)(F)F)cc3)nc2C)ccc1OCC(=O)O"
result = "inactive"

[[record]]
molecule = "COc1cc2c(cc1OC)CN(CCc1ccc(NC(=O)c3cccc4c(=O)c5cccc(OC)c5[nH]c34)cc1)CC2"
result = "inactive"

[[record]]
molecule = "COc1cccc2cc(-c3nc(C4CCC(C(=O)O)CC4)n4ncnc(N)c34)[nH]c12 (stereo not drawn)"
result = "7.08 µM (active)"

[[record]]
molecule = "Cc1oncc1C(=O)Nc1ccc(C(F)(F)F)cc1"
result = "28.2 µM (active)"

[[record]]
molecule = "N=c1nc(N2CCCCC2)cc(N)n1O"
result = "inactive"

[[record]]
molecule = "NC(=O)c1cnccn1"
result = "inactive"

[[record]]
molecule = "CCOc1ccn(-c2ccc(F)cc2)c(=O)c1C(=O)Nc1ccc(Oc2ccnc(N)c2Cl)c(F)c1"
result = "inactive"

[[record]]
molecule = "Nc1nc2c(ncn2COCCO)c(=O)[nH]1"
result = "inactive"

[[record]]
molecule = "Cc1ccccc1C(OCCN(C)C)c1ccccc1 (stereo not drawn)"
result = "inactive"

[[record]]
molecule = "Oc1ccc(C2CNCCc3c2cc(O)c(O)c3Cl)cc1 (stereo not drawn)"
result = "inactive"

[[record]]
molecule = "OCCn1cc(-c2cnc3nnn(Cc4ccc5ncccc5c4)c3n2)cn1"
result = "inactive"

[[record]]
molecule = "Cc1ccnc(NS(=O)(=O)c2ccc(NC(=O)Nc3ccc(S(=O)(=O)Nc4nccc(C)n4)cc3)cc2)n1"
result = "inactive"

[[record]]
molecule = "CCCC(CCC)C(=O)O"
result = "inactive"

[[record]]
molecule = "Nc1nc2ccc(OC(F)(F)F)cc2s1"
result = "inactive"

[[record]]
molecule = "C1COC(NC(C2CC2)C2CC2)=N1"
result = "inactive"

[[record]]
molecule = "Cc1cc2c(C(C)C)c(O)c(O)c(C=O)c2c(O)c1-c1c(C)cc2c(C(C)C)c(O)c(O)c(C=O)c2c1O"
result = "inactive"

[[record]]
molecule = "O=NN(CCCl)C(=O)NCCCl"
result = "inactive"

[[record]]
molecule = "NCCc1ccc(O)c(O)c1"
result = "inactive"

[[record]]
molecule = "Cc1c(C)c2c(c(C)c1O)CCC(C)(COc1ccc(CC3SC(=O)NC3=O)cc1)O2 (stereo not drawn)"
result = "inactive"

[[record]]
molecule = "CC[C@@H](C)[C@H](NC(=O)[C@H](CC1CCCCC1)NC(=O)c1ccno1)C(=O)N1CCC2(CCc3ccccc32)CC1"
result = "inactive"

[[record]]
molecule = "COc1ccccc1[C@H](c1cccc2ccccc12)[C@@](C)(C#N)C(=O)N1CCC(c2cccc(C(F)(F)F)c2)CC1"
result = "inactive"

[[record]]
molecule = "CC(C)(C)NCC(O)c1ccc(O)c(CO)c1 (stereo not drawn)"
result = "inactive"

